Data origin: patent US4879300A

molecular target: K receptor (Kappa opioid receptor) (Cavia porcellus, UniProt P41144); construct: fresh guinea pig brain homogenate; assay: Receptor binding to K sites (tritiated Ethylketocyclazocine, guinea pig brain homogenate); conditions: tritiated Ethylketocyclazocine with 100 nM DADLE and 100 nM DAGO, 25° C., 40 min, read-out: Receptor binding k (kj)
Sequence (P41144 whole entry): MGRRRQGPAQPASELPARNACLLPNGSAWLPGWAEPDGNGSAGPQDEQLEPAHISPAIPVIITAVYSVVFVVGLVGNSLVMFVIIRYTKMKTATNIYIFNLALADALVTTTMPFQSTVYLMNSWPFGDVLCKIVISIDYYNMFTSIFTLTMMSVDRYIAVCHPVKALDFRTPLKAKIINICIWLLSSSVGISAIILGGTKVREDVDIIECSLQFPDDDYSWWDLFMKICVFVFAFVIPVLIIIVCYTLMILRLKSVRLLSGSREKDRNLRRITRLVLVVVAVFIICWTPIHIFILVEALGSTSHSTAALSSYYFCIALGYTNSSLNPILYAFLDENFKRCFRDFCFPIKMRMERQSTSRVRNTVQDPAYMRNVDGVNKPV
outcome_measure: pKi
Answers are plain numbers, as −log10 of the molar value.

query: So what does the record say about pKi for CC(C1CCCCN1C(=O)Cc1ccc(Cl)c(Cl)c1)N(C)C.Cl (single isomer, unassigned; diastereoisomer b) [Example 4] ?
result: 8.64

====

target: μ receptor (Cavia porcellus, UniProt A0ACM8Q262)
Sequence (A0ACM8Q262 1-400): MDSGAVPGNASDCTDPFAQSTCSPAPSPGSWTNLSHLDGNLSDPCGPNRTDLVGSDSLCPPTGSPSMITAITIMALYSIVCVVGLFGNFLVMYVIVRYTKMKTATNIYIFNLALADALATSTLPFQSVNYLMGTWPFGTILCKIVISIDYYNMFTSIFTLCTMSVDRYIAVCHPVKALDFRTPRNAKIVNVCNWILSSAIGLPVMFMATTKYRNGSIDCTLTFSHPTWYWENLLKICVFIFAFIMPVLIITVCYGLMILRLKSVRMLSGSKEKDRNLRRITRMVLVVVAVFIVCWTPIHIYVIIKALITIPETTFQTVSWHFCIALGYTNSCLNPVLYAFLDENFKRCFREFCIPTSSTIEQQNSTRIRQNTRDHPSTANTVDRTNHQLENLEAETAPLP
outcome_measure: Ki
Answer as a quantity: numeral, then unit.

query: So what does the record say about Ki for CC(C1CCCCN1C(=O)Cc1ccc(Cl)c(Cl)c1)N(C)C.Cl (single isomer, unassigned; diastereoisomer b) ?
result: 913 nM
